This listing pairs binders with measured koff.
# ASSAY SYSTEM: T1, CD25 (R&D systems cat. #223-2A/CF) (UniProt P01589 22-213, limits assumed)
# T1 construct: Bought soluble protein
# T1 sequence (looked up): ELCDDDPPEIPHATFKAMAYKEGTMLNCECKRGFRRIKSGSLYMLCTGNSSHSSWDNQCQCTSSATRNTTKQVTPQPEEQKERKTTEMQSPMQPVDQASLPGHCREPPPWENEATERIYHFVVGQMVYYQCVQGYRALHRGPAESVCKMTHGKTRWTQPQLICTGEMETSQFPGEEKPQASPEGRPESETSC
# EXPERIMENT: Biacore (SPR); antibody captured on Protein A, CD25 injected
Number in s⁻¹, nothing else.

Example binders with recorded koff:
anti-CD25 H1L1.16 (antibody, V domains shown, Single variant in the anti-CD25 H1L1 background; also called VL F36Y single variant) VH: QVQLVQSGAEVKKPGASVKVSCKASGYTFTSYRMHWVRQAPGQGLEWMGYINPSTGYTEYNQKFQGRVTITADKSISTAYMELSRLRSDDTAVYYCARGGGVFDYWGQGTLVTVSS VL: QIVLTQSPATLSLSPGERATLSCRASSSISYMHWYQQKPGQSPQLLIYTTSNLASGVPARFSGSGSGTDYTLTISSLQPEDFAVYYCHQRSTYPLTFGSGTKLEIK ... 0.00042
anti-CD25 H1L1.5 (antibody, V domains shown, Single variant in the anti-CD25 H1L1 background; also called VL Q1E single variant) VH: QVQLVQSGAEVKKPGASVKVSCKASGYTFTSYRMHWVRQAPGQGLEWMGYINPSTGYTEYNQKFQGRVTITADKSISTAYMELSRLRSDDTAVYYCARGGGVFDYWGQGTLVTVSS VL: EIVLTQSPATLSLSPGERATLSCRASSSISYMHWFQQKPGQSPQLLIYTTSNLASGVPARFSGSGSGTDYTLTISSLQPEDFAVYYCHQRSTYPLTFGSGTKLEIK ... 0.00052
anti-CD25 H0L0 (antibody, V domains shown, Chimeric form of the anti-TAC antibody, in IgG1 format; also called chimeric anti-CD25 H0L0; anti-TAC H0L0) VH: QVQLQQSGAELAKPGASVKMSCKASGYTFTSYRMHWVKQRPGQGLEWIGYINPSTGYTEYNQKFKDKATLTADKSSSTAYMQLSSLTFEDSAVYYCARGGGVFDYWGQGTTLTVSS VL: QIVLTQSPAIMSASPGEKVTITCSASSSISYMHWFQQKPGTSPKLWIYTTSNLASGVPARFSGSGSGTSYSLTISRMEAEDAATYYCHQRSTYPLTFGSGTKLELK ... 0.00013
anti-CD25 H1.4L1 (antibody, V domains shown, Single variant in the anti-CD25 H1L1 background; also called VH K73T single variant) VH: QVQLVQSGAEVKKPGASVKVSCKASGYTFTSYRMHWVRQAPGQGLEWMGYINPSTGYTEYNQKFQGRVTITADTSISTAYMELSRLRSDDTAVYYCARGGGVFDYWGQGTLVTVSS VL: QIVLTQSPATLSLSPGERATLSCRASSSISYMHWFQQKPGQSPQLLIYTTSNLASGVPARFSGSGSGTDYTLTISSLQPEDFAVYYCHQRSTYPLTFGSGTKLEIK ... 0.0006

API: the following record is the query input.
Short answer for anti-CD25 H1L1.13 (antibody, V domains shown, Single variant in the anti-CD25 H1L1 background; also called VL V58I single variant) VH: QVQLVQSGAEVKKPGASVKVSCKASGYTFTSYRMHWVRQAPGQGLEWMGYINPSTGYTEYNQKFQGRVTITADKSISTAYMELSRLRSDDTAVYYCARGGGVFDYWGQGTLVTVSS VL: QIVLTQSPATLSLSPGERATLSCRASSSISYMHWFQQKPGQSPQLLIYTTSNLASGIPARFSGSGSGTDYTLTISSLQPEDFAVYYCHQRSTYPLTFGSGTKLEIK : koff was 0.0006
